target: ALDH1A1 (Homo sapiens, UniProt P00352); construct: His-tag; made in house; host or cells: bacterial cells; test: IC50 evaluation, NADH formation at 340 nm (Tecan SUNRISE); format: biochemical; settings: ALDH1A1; 20 mM acetaldehyde, 500 μM NAD+, 15% DMSO, 2.7 μM isoenzyme; read-out: IC50
Sequence (P00352 whole entry): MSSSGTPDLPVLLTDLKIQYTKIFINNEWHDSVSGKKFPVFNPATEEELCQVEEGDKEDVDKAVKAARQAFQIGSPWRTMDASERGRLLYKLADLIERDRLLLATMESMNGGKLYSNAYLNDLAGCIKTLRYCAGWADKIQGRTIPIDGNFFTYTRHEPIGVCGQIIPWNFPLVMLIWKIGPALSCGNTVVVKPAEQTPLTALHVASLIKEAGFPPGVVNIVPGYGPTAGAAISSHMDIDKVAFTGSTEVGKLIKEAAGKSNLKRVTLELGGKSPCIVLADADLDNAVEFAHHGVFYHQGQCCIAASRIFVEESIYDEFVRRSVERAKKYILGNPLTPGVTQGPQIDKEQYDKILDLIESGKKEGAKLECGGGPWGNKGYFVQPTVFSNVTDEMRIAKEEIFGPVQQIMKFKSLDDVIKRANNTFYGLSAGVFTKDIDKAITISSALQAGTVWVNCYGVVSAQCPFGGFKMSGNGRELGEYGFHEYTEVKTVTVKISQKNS
# key: entry, value: IC50
measurement-kind: IC50

test_smiles=CCOC(=O)Cn1cc(COc2ccc(C=CC(=O)C=C(O)C=Cc3ccc(OP(=O)(OCC)OCC)c(OC)c3)cc2OC)nn1 measurement_kind=IC50 result="70.1 µM"
test_smiles=CCOC(=O)Cn1cc(COc2ccc(/C=C/C(O)=C/C(=O)/C=C/c3ccc(O)c(OC)c3)cc2OC)nn1 measurement_kind=IC50 result="114 µM"
test_smiles=COc1cc(/C=C/C(=O)/C=C(O)/C=C/c2ccc(OCc3cn(CCOc4ccc(C=O)cc4)nn3)c(OC)c2)ccc1O measurement_kind=IC50 result="196 µM"
test_smiles=COc1cc(/C=C/C(O)=C/C(=O)/C=C/c2ccc(N(C)C)cc2)ccc1OCc1cn(CCOc2ccc(C=O)cc2)nn1 measurement_kind=IC50 result="28.5 µM"
